B1: Storkhead-box protein 2, residues 64 to 141; numbered along this chain, Q9P2F5 (parent)
chain: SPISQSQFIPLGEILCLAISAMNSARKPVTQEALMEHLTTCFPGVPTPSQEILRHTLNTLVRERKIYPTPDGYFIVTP

variants of: B1; assay: abundance fitness (aPCA) (normalised: wild type 0, dead -1); higher = more abundant; growth selection in yeast, the domain comes from the species named; settings: Homo sapiens
resultType: abundance fitness
Please give only the number in your answer, with no unit.

Example results:
| mutationString | abundance fitness |
| --- | --- |
| A21W | -0.244 |
| T69M | -0.148 |
| F74C | -0.042 |
| P43T | -0.028 |
| A25G | -0.175 |

Reported abundance fitness for A25K was -0.007

Reported abundance fitness for A21I was -0.24

Reported abundance fitness for R26F was -0.089

Reported abundance fitness for M35P was -0.361

Reported abundance fitness for P48Q was -0.156

Reported abundance fitness for I14H was 0.033

Reported abundance fitness for T77I was -0.261

Reported abundance fitness for S24M was -0.125

Reported abundance fitness for S49F was -0.887
